Molecular target: TLR9 (Mus musculus)
Construct: endogenous in cells
Sequence (Q9EQU3 26-1032): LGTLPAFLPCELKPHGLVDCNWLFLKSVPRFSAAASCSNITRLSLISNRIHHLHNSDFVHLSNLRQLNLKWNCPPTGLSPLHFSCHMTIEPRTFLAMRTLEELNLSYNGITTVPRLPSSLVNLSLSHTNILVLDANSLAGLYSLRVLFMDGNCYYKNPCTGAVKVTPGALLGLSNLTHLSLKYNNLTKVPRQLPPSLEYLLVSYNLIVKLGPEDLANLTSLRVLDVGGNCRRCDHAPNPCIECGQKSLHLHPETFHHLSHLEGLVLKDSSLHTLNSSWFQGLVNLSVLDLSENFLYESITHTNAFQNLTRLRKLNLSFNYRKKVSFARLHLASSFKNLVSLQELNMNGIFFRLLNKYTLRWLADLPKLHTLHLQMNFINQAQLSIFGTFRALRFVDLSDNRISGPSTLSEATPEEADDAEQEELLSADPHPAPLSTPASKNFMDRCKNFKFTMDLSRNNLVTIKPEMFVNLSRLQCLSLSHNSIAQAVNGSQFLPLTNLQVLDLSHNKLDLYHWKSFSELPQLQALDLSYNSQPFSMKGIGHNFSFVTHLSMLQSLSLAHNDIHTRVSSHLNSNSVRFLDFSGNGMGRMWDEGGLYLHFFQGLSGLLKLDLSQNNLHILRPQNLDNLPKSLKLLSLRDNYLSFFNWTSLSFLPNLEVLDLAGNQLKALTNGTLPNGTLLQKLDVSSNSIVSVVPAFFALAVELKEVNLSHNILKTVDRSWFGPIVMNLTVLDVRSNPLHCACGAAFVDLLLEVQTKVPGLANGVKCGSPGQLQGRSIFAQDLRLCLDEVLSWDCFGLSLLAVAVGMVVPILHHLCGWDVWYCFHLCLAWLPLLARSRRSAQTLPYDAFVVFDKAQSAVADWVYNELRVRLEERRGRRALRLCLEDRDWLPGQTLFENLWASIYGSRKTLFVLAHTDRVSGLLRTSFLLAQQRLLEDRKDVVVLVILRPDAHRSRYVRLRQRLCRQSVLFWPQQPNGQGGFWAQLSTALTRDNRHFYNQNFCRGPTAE
Assay: TLR9-mediated TNF-α secretion (ODN2395 stimulation), ELISA
Conditions: RAW 264.7, ODN2395 (FIG. 4C)
property label: pIC50
The value called pIC50 is obtained by taking minus log10 of the concentration in mol/L.

Challenge: Specify the recorded pIC50 for COc1ccc(CNc2ncc(-c3ccc4c(c3)OCO4)n2C)c(OC)c1 [TIC10-7] , system: TLR9 (Mus musculus).
Response given: 5.17
